Data origin: a melting point compilation (Tetko et al.; mined from patent text by program, amines drawn as free bases though some values may be those of a salt)

Listed next: entries and their corresponding melting point.

[
  {
    "Compound": "CCOC(=O)C1=CNc2ccc(C(F)(F)F)cc2CC1c1ccccc1Cl (stereo unspecified)",
    "melting point": "190 to 192 °C"
  },
  {
    "Compound": "CC(C(=O)c1ccc(Br)cc1)n1ncn(-c2ccc(N3CCN(c4ccc(O[Si](C)(C)C(C)(C)C)cc4)CC3)cc2)c1=O (stereo unspecified)",
    "melting point": "178 °C"
  },
  {
    "Compound": "COc1ccc(CSC#N)cc1OCc1ccccc1",
    "melting point": "70 to 74 °C"
  },
  {
    "Compound": "CCOCN1C(C)=C(C(=O)OCC)C(c2cccc([N+](=O)[O-])c2)C(C(=O)OCC)=C1C",
    "melting point": "125 °C"
  },
  {
    "Compound": "N#Cc1cnn(-c2ccc(Cl)c(Cl)c2Cl)c1NC(=O)CCCCl",
    "melting point": "173 to 174 °C"
  }
]

Prompt line: Recorded melting point of COC(=O)NC(CCc1ccccc1)C(=O)O (stereo unspecified) , please.
Response line: 108 to 110 °C

Prompt line: Recorded melting point of CCCOCCOc1ccc(COc2ccc3c(c2)C=C(C(=O)O)CCS3(=O)=O)cc1 , please.
Response line: 244 to 250 °C

Prompt line: Recorded melting point of COc1cccc(C2=C(CO)C(=O)N(C)CC2)c1 , please.
Response line: 81 to 83 °C

Prompt line: Recorded melting point of CC(C)(C)[Si](C)(C)OC1C(n2ccc(=O)[nH]c2=O)OC(CO)C1(O)C#C[Si](C)(C)C (stereo unspecified) , please.
Response line: 188 to 189 °C

Prompt line: Recorded melting point of CCOC(=O)CC(=O)c1cn(C(c2ccccc2)(c2ccccc2)c2ccccc2)cn1 , please.
Response line: 136 to 139 °C

Prompt line: Recorded melting point of C#CCOc1ccc(C(=O)C=Cc2cccs2)c(O)c1 , please.
Response line: 83 to 85 °C

Prompt line: Recorded melting point of CCOC(=O)C1CN(C(=O)c2cc(OC)c(OC)c(OC)c2)CCN1 (stereo unspecified) , please.
Response line: 114 to 115 °C

Prompt line: Recorded melting point of CCOC(=O)c1ccccc1-n1c(=O)[nH]c2ccccc2c1=O , please.
Response line: 196 to 197 °C

Prompt line: Recorded melting point of CC1=C(C(=O)OCc2ccccc2)C(c2ccccc2Cl)c2c[nH]nc2N1 (stereo unspecified) , please.
Response line: 234 °C

Prompt line: Recorded melting point of O=C(Nc1cccc2c(O)cccc12)c1ccc(F)c([N+](=O)[O-])c1 , please.
Response line: 235 to 238 °C

Prompt line: Recorded melting point of O=C1CCCC2(c3ccccc3)NCCCN12 (stereo unspecified) , please.
Response line: 120 °C

* * *

Listed next: entries and their corresponding melting point.

// known answers, use as guide
[
  {
    "Molecule": "CCCn1c(=O)n(Cc2ccccc2)c(=O)c2nc(-c3ccc(/C=C/C(=O)O)cc3)[nH]c21",
    "melting point": "> 300 °C"
  },
  {
    "Molecule": "Fc1ccc(-c2cc(-c3ccccc3)c(-c3ccccc3)s2)cc1",
    "melting point": "108 to 110 °C"
  },
  {
    "Molecule": "COCc1nc(N)nc(N)c1-c1ccc(Cl)cc1Cl",
    "melting point": "183 to 185 °C"
  },
  {
    "Molecule": "O=C1CCCC2=C1OC(CC(=O)c1ccccc1)(c1ccccc1)C=C2c1ccccc1 (centres undefined)",
    "melting point": "178 to 179 °C"
  },
  {
    "Molecule": "CC(C)(C)c1cc(Oc2ccc([N+](=O)[O-])c(O)c2)ccc1Oc1ccc([N+](=O)[O-])c(O)c1",
    "melting point": "156 to 158 °C"
  },
  {
    "Molecule": "Fc1cccc(F)c1C1=NC(c2ccc(OCc3ccc(Cl)cc3Cl)cc2)CO1 (centres undefined)",
    "melting point": "104 °C"
  }
]

Prompt line: Recorded melting point of CC(N)(C=CCP(=O)(O)O)C(=O)O (centres undefined) , please.
Response line: 225 to 226 °C

Prompt line: Recorded melting point of Nc1nc(N)c2cc(CCc3ccccc3)ccc2n1 , please.
Response line: 178 to 180 °C

Prompt line: Recorded melting point of CC1(C)CC(=O)c2cc(C#N)ccc2O1 , please.
Response line: 119 to 120 °C
